Recorded values, source patent US8586600B2.

Target: c-KIT (V654A) (Homo sapiens (Human), UniProt P10721, V654A)
Sequence (P10721 26-976 V654A): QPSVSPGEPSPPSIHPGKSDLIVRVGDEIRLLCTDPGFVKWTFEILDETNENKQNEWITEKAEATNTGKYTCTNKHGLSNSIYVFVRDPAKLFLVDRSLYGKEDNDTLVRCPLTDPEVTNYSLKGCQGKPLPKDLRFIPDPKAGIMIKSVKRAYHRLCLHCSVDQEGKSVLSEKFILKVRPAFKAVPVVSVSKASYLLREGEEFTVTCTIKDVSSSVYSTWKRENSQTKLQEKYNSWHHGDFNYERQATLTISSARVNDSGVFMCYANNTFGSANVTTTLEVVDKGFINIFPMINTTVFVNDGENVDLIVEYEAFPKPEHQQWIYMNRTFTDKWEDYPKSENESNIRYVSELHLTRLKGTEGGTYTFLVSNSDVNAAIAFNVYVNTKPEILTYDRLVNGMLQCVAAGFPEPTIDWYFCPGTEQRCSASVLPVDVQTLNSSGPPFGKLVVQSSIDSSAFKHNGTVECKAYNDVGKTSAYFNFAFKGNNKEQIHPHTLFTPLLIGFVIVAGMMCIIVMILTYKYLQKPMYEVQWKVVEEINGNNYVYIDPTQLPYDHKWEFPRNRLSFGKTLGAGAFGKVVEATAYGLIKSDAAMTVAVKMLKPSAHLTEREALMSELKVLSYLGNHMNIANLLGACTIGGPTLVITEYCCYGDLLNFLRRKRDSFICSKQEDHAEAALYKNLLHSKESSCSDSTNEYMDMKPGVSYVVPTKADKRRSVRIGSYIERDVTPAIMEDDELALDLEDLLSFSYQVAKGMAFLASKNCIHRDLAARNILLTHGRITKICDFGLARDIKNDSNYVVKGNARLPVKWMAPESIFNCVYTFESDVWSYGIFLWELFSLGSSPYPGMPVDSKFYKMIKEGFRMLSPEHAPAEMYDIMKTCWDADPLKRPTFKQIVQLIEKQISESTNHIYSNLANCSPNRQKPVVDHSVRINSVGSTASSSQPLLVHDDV
Assay: c-Kit (V654A) Omnia assay with pre-activated enzyme (Method D)
Assay type: biochemical
Details: [ATP]=100 μM, read-out: Mutant c-KIT (V654A) IC50
readout-type: IC50 (µM)

Known IC50 results, listed for orientation:
Cc1ccc(NC(=O)c2ccc(NS(=O)(=O)c3cnccc3Cl)cc2)cc1Nc1nccc(-c2cccnc2)n1 [II-40]; 10
Cc1ccc(C(=O)Nc2ccc(NC(=O)/C=C/CN(C)C)c(C(F)(F)F)c2)cc1Nc1nccc(-c2cccnc2)n1 [III-6]; 3.99
Cc1ccc(NC(=O)c2ccc(NC(=O)/C=C/CN(C)C)c(C(F)(F)F)c2)cc1Nc1nccc(-c2cccnc2)n1 [II-55]; 9.15

I: Cc1ccc(NC(=O)c2ccc(NC(=O)C(C)Cl)cc2)cc1Nc1nccc(-c2cccnc2)n1 (centres unmarked) [II-54]
II: Cc1ccc(NC(=O)c2ccc(NC(=O)CCl)cc2)cc1Nc1nccc(-c2cccnc2)n1 [II-53]
Determine, for I and II , which has the greater value of IC50. Answer = label.
I
(I: 10 µM, II: 0.937 µM)
